These entries and their values trace back to paper PMC11651181.

assay: In vivo BBB-penetration studies (LC-MS/MS of brain and plasma); set-up: species or system mouse; settings: Swiss Webster, mouse, brain and plasma, sc; 10 mg/kg s.c., 30 min; read-out: Brain-to-Plasma ratio

- molecule: "O=C(N[C@H]1CC[C@@]2(O)[C@H]3Cc4ccc(O)c5c4[C@@]2(CCN3CC2CC2)[C@H]1O5)c1nccs1 [Compound 6]"
  Kp at 0.5 h: 0.217

* * *

target: MOR (Mus musculus); construct: expressed in transfected cells; host or cells: CHO (MOR-CHO), membrane preparation; experiment: MOR [35S]GTPγS functional assay; format: biochemical; conditions: read-out: MOR [35S]GTPγS Binding %Emax of DAMGO, relative to 3 μM DAMGO; mean ± SEM
Sequence (P42866 whole entry): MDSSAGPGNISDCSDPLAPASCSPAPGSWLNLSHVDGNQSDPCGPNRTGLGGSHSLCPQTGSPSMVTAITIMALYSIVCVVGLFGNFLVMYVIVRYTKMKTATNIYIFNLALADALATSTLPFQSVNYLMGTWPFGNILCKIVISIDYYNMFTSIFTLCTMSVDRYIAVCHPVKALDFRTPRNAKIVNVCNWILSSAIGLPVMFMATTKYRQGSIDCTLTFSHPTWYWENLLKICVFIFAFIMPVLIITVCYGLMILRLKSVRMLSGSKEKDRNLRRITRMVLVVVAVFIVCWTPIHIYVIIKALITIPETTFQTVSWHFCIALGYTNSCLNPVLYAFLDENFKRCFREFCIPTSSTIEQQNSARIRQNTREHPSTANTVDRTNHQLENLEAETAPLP
If the reported Emax equals or exceeds 10%, assign 1. If not, assign 0.

- molecule: "O=C(Cc1ccns1)N[C@H]1CC[C@@]2(O)[C@H]3Cc4ccc(O)c5c4[C@@]2(CCN3CC2CC2)[C@H]1O5 [Compound 2]"
  class: 1
- molecule: "O=C(Cc1cncs1)N[C@@H]1CC[C@@]2(O)[C@H]3Cc4ccc(O)c5c4[C@@]2(CCN3CC2CC2)[C@H]1O5 [Compound 12]"
  class: 1
- molecule: "O=C(Cc1ccns1)N[C@@H]1CC[C@@]2(O)[C@H]3Cc4ccc(O)c5c4[C@@]2(CCN3CC2CC2)[C@H]1O5 [Compound 10]"
  class: 0
- molecule: "O=C(Cc1nccs1)N[C@@H]1CC[C@@]2(O)[C@H]3Cc4ccc(O)c5c4[C@@]2(CCN3CC2CC2)[C@H]1O5 [Compound 15]"
  class: 1
- molecule: "O=C(N[C@H]1CC[C@@]2(O)[C@H]3Cc4ccc(O)c5c4[C@@]2(CCN3CC2CC2)[C@H]1O5)c1ccns1 [Compound 1]"
  class: 1
- molecule: "O=C(CCc1nccs1)N[C@@H]1CC[C@@]2(O)[C@H]3Cc4ccc(O)c5c4[C@@]2(CCN3CC2CC2)[C@H]1O5 [Compound 16]"
  class: 1
- molecule: "O=C(N[C@@H]1CC[C@@]2(O)[C@H]3Cc4ccc(O)c5c4[C@@]2(CCN3CC2CC2)[C@H]1O5)c1nccs1 [Compound 14]"
  class: 0
